# inhibition annotations
- measured_on: Single-strand selective monofunctional uracil DNA glycosylase (Homo sapiens)
- settings: Compound Concentration 10.0 uM, Hit No;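 note: enzymatic SMUG1 assay coupled with APE1, reading fluorescence at 594 nm released when a quenched double-stranded DNA oligonucleotide substrate is cleaved and separated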
- Description: Inhibition of SMUG1 by quantifying inhibition of SMUG1-mediated cleavage and dissociation of quenched duplex DNA oligonucleotides, measured as fluorescence at 594 nm. To generate a functional strand incision and increase turn-over this assay is coupled to APE1.
Where a SMILES comes first, the peptide text is derived from it. [ ]: non-standard residue; d: D form. Arg(Me) = CNC(=N)NCCC[C@H](N)C(=O)O; d4Pal = N[C@H](Cc1ccncc1)C(=O)O; azaGly = NNC(=O)O
Express it in %; write the number only.

Known inhibition results, listed for orientation:
{"compound": "CSc1ccc(C(=O)/C=C/c2cc(C)c(OC(C)(C)C(=O)O)c(C)c2)cc1", "unit_abbrev": "%", "inhibition": 7.83}
{"compound": "O=C(Nc1ccc(Cl)cc1)Nc1cccc(-c2cccc(N3CCCC3)n2)c1", "unit_abbrev": "%", "inhibition": -0.712}
{"compound": "Cc1cn2cc(CC(=O)N3CCC4(CC3)CN(Cc3ccc(-n5nccn5)cc3Cl)C4)nc2s1", "unit_abbrev": "%", "inhibition": -0.227}
{"compound": "Cc1ccccc1N1CCN(CCc2nnc3n2CCCC3)CC1", "unit_abbrev": "%", "inhibition": -1.58}

The reported inhibition of the compound Nc1nc(NCc2ccccc2)nc(-c2cccc(CO)c2)n1 was 0.878

The reported inhibition of the compound COC(=O)/C=C/c1cccc(N(Cc2ccc(-c3ccc(N(C)C)cc3)cc2)C(=O)C2CCCCC2)c1 was -4.57

The reported inhibition of the compound CNc1ncc2cc(-c3ccc(-c4ncccc4F)cc3Cl)c(=O)n(C[C@H]3OC[C@H](N)CO3)c2n1 was 24.9

The reported inhibition of the compound Oc1cc2c(cc1O)C(c1ccccc1)CNCC2 (configuration not stated) was -4.15

The reported inhibition of the compound Cc1ccc(Cn2nc(C(=O)N[C@@H]3C(C)(C)[C@@H]4CC[C@@]3(C)C4)cc2-c2ccc(Cl)c(C)c2)cc1 was -0.0818

The reported inhibition of the compound COc1cc(NC(=O)c2ccc(-c3ccc(Cl)cc3)o2)cc(OC)c1 was 15.3

The reported inhibition of the compound O=C(NCc1ccc(F)cc1)N1CCN2C(=O)OC(c3ccccc3)(c3ccccc3)C2C1 (configuration not stated) was 10.1

The reported inhibition of the compound CNC(=N)NCCC[C@H](NC(=O)[C@H](CC(C)C)NC(=O)NNC(=O)[C@H](Cc1ccccc1)NC(=O)[C@H](CO)NC(=O)[C@H](CC(N)=O)NC(=O)[C@@H](Cc1ccncc1)NC(=O)[C@H](N)Cc1ccc(O)cc1)C(=O)N[C@@H](Cc1ccccc1)C(N)=O (H-[dY][d4Pal]NSF[azaGly]L[Arg(Me)]F-NH2) was 19.5
